The following compounds are listed with their measured IC50 (cell viability) values.
- Test system: LAMA-84
- Condition Context: 72 h
Measure: IC50 (cell viability)

>>> val("N#CC(C#N)=NNc1ccc(OC(F)(F)F)cc1")
"2.01 µM"
>>> val("O[C@H]1[C@H]2[C@H](O)CCCN2C[C@H]1O")
"> 10 µM"
>>> val("CC(C)c1onc(-c2c(Cl)cccc2Cl)c1COc1ccc(/C=C/c2cccc(C(=O)O)c2)c(Cl)c1")
"4.27 µM"
>>> val("Cc1cn([C@H]2C[C@H](O)[C@@H](COP(=O)(O)OP(=O)(O)O)O2)c(=O)[nH]c1=O [Thymidine diphosphate]")
"> 10 µM"
>>> val("COc1ccc(S(=O)(=O)N2CCN(S(=O)(=O)c3ccc4c(c3)OCCO4)CC2)cc1")
"> 10 µM"
>>> val("CCCc1cc(-c2nc(-c3ccc(C)cc3)cs2)ccn1")
"> 10 µM"
>>> val("O=C(O)Cn1nnc(-c2cc(N3CCC(Oc4cc(F)ccc4Br)CC3)no2)n1")
"> 10 µM"
>>> val("CCN(CC)CCCC(C)Nc1ccnc2cc(Cl)ccc12 (configuration not stated)")
"> 10 µM"
>>> val("O=C1O/C(=C/Br)CCC1c1cccc2ccccc12 (configuration not stated)")
"> 10 µM"
>>> val("C=C(C=NNC(=N)N)NNC(=N)N")
"2.29 µM"
>>> val("COc1ccc(C(=O)Nc2c(Cl)cncc2Cl)cc1OC1CCCC1")
"> 10 µM"
>>> val("CCOP(=O)(OCC)C(=Cc1cc(C(C)(C)C)c(O)c(C(C)(C)C)c1)P(=O)(OCC)OCC")
"> 10 µM"
>>> val("CCOC(=O)c1cncn1[C@H](C)c1ccccc1 [Etomidate]")
"> 10 µM"
>>> val("CCOC(=O)c1ccc(-c2ccc(OC(=O)N(C)Cc3cccc(-c4ccncc4)c3)cc2)cc1")
"> 10 µM"
>>> val("CC(C)c1nc(CN(C)C(=O)N[C@H](C(=O)N[C@@H](Cc2ccccc2)C[C@H](O)[C@H](Cc2ccccc2)NC(=O)OCc2cncs2)C(C)C)cs1")
"> 10 µM"
>>> val("CCC(=O)N1CCN(c2ccc(-n3c(=O)ccc4cnc5ccc(-c6cnc7ccccc7c6)cc5c43)cc2C(F)(F)F)CC1")
"0.222 µM"
>>> val("O=C(O)C1=CC(=C(c2ccc(O)c(C(=O)O)c2)c2ccc(O)c(C(=O)O)c2)C=CC1=O")
"> 10 µM"

----------
- System: myeloid leukemia patient primary cells Pat.9
- Assay Procedure: cell viability (% survival relative to DMSO control); higher = less cytotoxic
- Condition Context: 10 nM; 72 h
Measure: cell viability

>>> val("CN(C)C(=O)n1nnnc1Cc1ccc(-c2ccccc2)cc1")
"5.6%"
>>> val("C[C@H](NC(=O)c1sccc1OCc1ccc(Cl)cc1)c1ccccc1")
"59.2%"
>>> val("COC(=O)[C@]12CCC(C)(C)C[C@H]1[C@H]1C(=O)C=C3[C@@]4(C)C=C(C#N)C(=O)C(C)(C)[C@@H]4CC[C@@]3(C)[C@]1(C)CC2")
"25.4%"
>>> val("O=C(O)C1=CC(=C(c2ccc(O)c(C(=O)O)c2)c2ccc(O)c(C(=O)O)c2)C=CC1=O")
"99%"

----------
- Tested on: HL-60
- Assay Procedure: cell viability (% survival relative to DMSO control); higher = less cytotoxic
- Condition Context: 10 µM; 72 h; co-treatment: GSK2194069 100 nM
The following compounds are listed with their measured cell viability values.
Measure: cell viability (%)

>>> val("O=c1cc(-c2ccccc2)oc2cc(O)c(O)c(O)c12")
99.8
>>> val("O=C(C1CC1)N1CC[C@@H](C=C2NNC(=O)N2c2ccc(-c3ccc4occc4c3)cc2)C1")
82.4
>>> val("NC(=O)c1cccc(-c2cccc(OC(=O)NC3CCCCC3)c2)c1")
104
>>> val("O=C1O[C@H]([C@@H](O)CO)C(O)=C1O [Vitamin C (ascorbate)]")
95.5

Entry source: the supplement of paper PMC8671470
